Entries and their pIC50
- assayed-target: ALPK1 (Homo sapiens (Human), UniProt Q96QP1)
- Sequence (Q96QP1 whole entry): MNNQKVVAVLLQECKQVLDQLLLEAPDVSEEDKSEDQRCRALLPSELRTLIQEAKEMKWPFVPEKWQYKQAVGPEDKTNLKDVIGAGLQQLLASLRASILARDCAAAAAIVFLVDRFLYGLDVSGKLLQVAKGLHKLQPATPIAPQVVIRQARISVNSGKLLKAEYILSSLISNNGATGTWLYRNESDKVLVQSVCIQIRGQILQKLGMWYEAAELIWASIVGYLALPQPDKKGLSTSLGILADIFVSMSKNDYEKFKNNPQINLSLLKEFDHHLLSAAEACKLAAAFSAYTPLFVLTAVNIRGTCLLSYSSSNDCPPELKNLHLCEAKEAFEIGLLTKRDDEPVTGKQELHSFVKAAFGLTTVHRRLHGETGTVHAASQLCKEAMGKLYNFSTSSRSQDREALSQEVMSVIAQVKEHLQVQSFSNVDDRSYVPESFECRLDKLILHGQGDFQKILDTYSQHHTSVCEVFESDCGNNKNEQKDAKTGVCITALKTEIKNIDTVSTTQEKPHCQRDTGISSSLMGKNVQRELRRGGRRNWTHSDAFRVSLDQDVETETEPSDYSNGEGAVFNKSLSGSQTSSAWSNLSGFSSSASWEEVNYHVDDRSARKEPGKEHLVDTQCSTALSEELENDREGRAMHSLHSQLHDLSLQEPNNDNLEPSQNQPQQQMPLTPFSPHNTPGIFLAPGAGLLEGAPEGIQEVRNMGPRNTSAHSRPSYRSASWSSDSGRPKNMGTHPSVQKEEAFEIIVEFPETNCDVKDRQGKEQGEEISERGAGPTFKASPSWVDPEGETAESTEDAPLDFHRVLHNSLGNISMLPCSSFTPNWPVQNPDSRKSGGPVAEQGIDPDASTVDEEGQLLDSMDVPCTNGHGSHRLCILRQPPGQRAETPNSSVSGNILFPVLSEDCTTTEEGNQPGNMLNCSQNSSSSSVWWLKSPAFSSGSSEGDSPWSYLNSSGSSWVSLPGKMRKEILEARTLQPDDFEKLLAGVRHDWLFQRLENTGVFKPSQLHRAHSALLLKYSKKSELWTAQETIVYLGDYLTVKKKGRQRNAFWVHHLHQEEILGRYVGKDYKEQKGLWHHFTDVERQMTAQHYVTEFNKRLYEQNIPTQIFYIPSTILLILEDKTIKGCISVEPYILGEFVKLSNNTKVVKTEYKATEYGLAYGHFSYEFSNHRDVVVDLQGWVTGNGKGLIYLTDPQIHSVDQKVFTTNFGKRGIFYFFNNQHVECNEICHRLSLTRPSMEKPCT
- protocol-text: ALPK1 in vitro kinase assay (HTRF of TIFA phosphorylation)
- Assay type: biochemical
Recall that pIC50 is obtained by taking minus log10 of the concentration measured in molar.

Record excerpt, results attached:
compound	assayed-target	pIC50
C#C[C@](C)(c1ccc(F)cc1)c1csc(NC(=O)NCCS(N)(=O)=O)n1 [Example A284]	ALPK1 (Homo sapiens (Human), UniProt Q96QP1)	6.18
[2H]c1sc(NC(=O)NCCO)nc1[C@](C)(C#C)c1ccc(Cl)cc1 [Example A300]	ALPK1 (Homo sapiens (Human), UniProt Q96QP1)	6.47
CCNC(=O)Nc1nc(C(C)(C)c2ccc(Br)cc2)cs1 [Example A241]	ALPK1 (Homo sapiens (Human), UniProt Q96QP1)	7.01
C#CC(C)(c1ccc(Cl)cc1)c1csc(NC(=O)NCCC#N)n1 (centres unmarked) [Example A024]	ALPK1 (Homo sapiens (Human), UniProt Q96QP1)	7.89

Query block: Would you mind telling me what pIC50 value was observed for COc1ccc(C(C)(C)c2csc(NC(=O)NCc3ccc(NC4CCNCC4)cc3)n2)cc1 [Example A041] ?
Result block: 7.64

Query block: Quick one: pIC50 of CC(C)(c1ccc(Br)cc1)c1csc(NC(=O)NCc2ccc(N3CCCNCC3)c(F)c2)n1 [Example A197] ?
Result block: 7.17

Query block: Fill in: pIC50 of C#CC(C)(c1ccc(Br)cc1)c1csc(NC(N)=O)n1 (centres unmarked) [Example A162] is ___
Result block: 7.42

Query block: Find the recorded pIC50 belonging to CC(C)(c1ccc(Br)cc1)c1csc(NC(=O)NCc2cnc(N3CCNCC3)nc2)n1 [Example A088] and report it.
Result block: 7.89

The reported numbers originate from patent US20240109853A1.
